Quick reference for fold change (FC) among some compounds
test system: Salmonella typhimurium; assay: Genotoxicity against Salmonella typhimurium TA98 assessed as fold increase in revertants at 5 mg/ml after 90 mins by Ames MPF test in absence of S9 fraction relative to baseline; assay type: toxicity, organism-based; conditions: salmonella enterica subsp. enterica serovar typhimurium, 1.5 h

Before answering, review these 3 worked examples.
CN(C)c1ccc(/C=N/NC(=O)CSc2nnnn2C)cc1 = 0
Cn1nnnc1SCC(=O)N/N=C/c1ccccc1[N+](=O)[O-] = 1.14
COc1ccc(/C=N/NC(=O)CSc2nnnn2C)cc1 = 0.33

Look at this compound and give its reported fold change (FC). `Cn1nnnc1SCC(=O)N/N=C/c1ccccc1F`
1.59

Which fold change (FC) is listed for `Cn1nnnc1SCC(=O)N/N=C/c1ccc(O)cc1` ?
0.26

###

tested on: Salmonella typhimurium; test: Genotoxicity against Salmonella typhimurium TA1535/pSK1002 assessed as induction ratio at 0.63 mg/ml by umuC assay in absence of S9 fraction; format: toxicity, organism-based; conditions: salmonella enterica subsp. enterica serovar typhimurium
Metric name: Ratio
Could you respond with only the numeric value?

Cn1nnnc1SCC(=O)N/N=C/c1ccccc1[N+](=O)[O-] = 1.509
COc1ccc(/C=N/NC(=O)CSc2nnnn2C)cc1 = 1.357
Cn1nnnc1SCC(=O)N/N=C/c1ccccc1F = 1.312

State the recorded Ratio for this entry: `Cn1nnnc1SCC(=O)N/N=C/c1ccc(O)cc1`
1.181

What Ratio value was documented for this compound, `CN(C)c1ccc(/C=N/NC(=O)CSc2nnnn2C)cc1` ?
1.36

###

Reported Ratio values for a set of compounds
tested on: Salmonella typhimurium; experiment: Genotoxicity against Salmonella typhimurium TA1535/pSK1002 assessed as growth factor ratio at 5 mg/ml by umuC assay in absence of S9 fraction; type: toxicity, organism-based; details: salmonella enterica subsp. enterica serovar typhimurium

Cn1nnnc1SCC(=O)N/N=C/c1ccccc1F = 3.877

Would you mind telling me what Ratio value was observed for `Cn1nnnc1SCC(=O)N/N=C/c1ccc(O)cc1` ?
2.049

Given the compound `COc1ccc(/C=N/NC(=O)CSc2nnnn2C)cc1` , what is its reported Ratio?
1.99

For the compound shown here, `Cn1nnnc1SCC(=O)N/N=C/c1ccccc1[N+](=O)[O-]` , give the reported Ratio.
1.281

Could you share which Ratio value was measured for `CN(C)c1ccc(/C=N/NC(=O)CSc2nnnn2C)cc1` ?
2.781

###

tested on: Salmonella typhimurium; assay: Genotoxicity against Salmonella typhimurium TA100 assessed as fold increase in revertants at 5 mg/ml after 90 mins by Ames MPF test in absence of S9 fraction relative to baseline; type: toxicity, organism-based; conditions: salmonella enterica subsp. enterica serovar typhimurium, 1.5 h
Classification field: true = fold change (FC) at or over 0.5; false = fold change (FC) under 0.5.

Cn1nnnc1SCC(=O)N/N=C/c1ccc(O)cc1 = false
CN(C)c1ccc(/C=N/NC(=O)CSc2nnnn2C)cc1 = true
Cn1nnnc1SCC(=O)N/N=C/c1ccccc1F = false

fold change (FC) >= 0.5 for `Cn1nnnc1SCC(=O)N/N=C/c1ccccc1[N+](=O)[O-]` ?
true

###

tested on: Salmonella typhimurium; experiment: Genotoxicity against Salmonella typhimurium TA100 assessed as fold increase in revertants at 2.5 mg/ml after 90 mins by Ames MPF test in absence of S9 fraction relative to baseline; format: toxicity, organism-based; details: salmonella enterica subsp. enterica serovar typhimurium, 1.5 h
Metric name: fold change (FC)
Respond using a number only.

Example molecules with recorded fold change (FC):
Cn1nnnc1SCC(=O)N/N=C/c1ccc(O)cc1 = 0.33
Cn1nnnc1SCC(=O)N/N=C/c1ccccc1F = 0.17
COc1ccc(/C=N/NC(=O)CSc2nnnn2C)cc1 = 0.6

Give the measured fold change (FC) of `Cn1nnnc1SCC(=O)N/N=C/c1ccccc1[N+](=O)[O-]` .
0.67

// lookup fold change (FC) for `CN(C)c1ccc(/C=N/NC(=O)CSc2nnnn2C)cc1`
1.14
